Structures can show the parent of a compound that is named as a salt.
The following compounds are shown together with reported melting point values.

Solved cases below.
Cc1cc(F)ccc1C1CC(O)(C(c2cccc(Cl)c2)c2cc3cc(S(C)(=O)=O)ccc3[nH]c2=O)CCN1 (stereo not drawn) (as salt: hydrochloride) [Compound 159]    > 250 °C
COc1nc2ccc(Cl)cc2cc1C(c1ccc(SC)cc1)C1(O)CCNC(c2ccc(F)cc2C)C1 (stereo not drawn) (as salt: fumarate) [Compound 354]    168 to 170 °C

Fill in the blank: the reported melting point of Cc1cc(F)ccc1C1CC(O)(C(c2cccc(Cl)c2)c2cc3cc(Br)ccc3[nH]c2=O)CCN1 (stereo not drawn) (as salt: hydrochloride) [Compound 135] is ____. > 250 °C
